Would you kindly list Kd for each of these binders?
Target: T1, Human B7-H4 ECD-Flag-His10 (monomeric) (human, UniProt Q7Z7D3 25-259)
T1 construct: Minimally biotinylated for KinExA; also called hB7H4-ECD-Flag-His10; B7-H4-FLAG
T1 sequence: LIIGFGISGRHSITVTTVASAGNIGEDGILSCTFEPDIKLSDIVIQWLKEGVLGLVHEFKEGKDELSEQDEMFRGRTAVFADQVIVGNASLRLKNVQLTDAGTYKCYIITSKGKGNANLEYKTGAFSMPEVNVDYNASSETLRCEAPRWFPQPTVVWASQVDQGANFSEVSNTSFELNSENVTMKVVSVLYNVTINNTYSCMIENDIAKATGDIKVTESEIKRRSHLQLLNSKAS
Assay: Octet BLI, hIgG1-TM on Protein G (n = 4-7)
Reply numerically in nM, unit not repeated.

Item under review: ZY0EOB-F05 human IgG1-TM (antibody, V domains shown) VH: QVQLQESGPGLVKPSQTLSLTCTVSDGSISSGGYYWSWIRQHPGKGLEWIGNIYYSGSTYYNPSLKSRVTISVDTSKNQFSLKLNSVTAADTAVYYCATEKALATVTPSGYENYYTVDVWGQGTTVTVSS VL: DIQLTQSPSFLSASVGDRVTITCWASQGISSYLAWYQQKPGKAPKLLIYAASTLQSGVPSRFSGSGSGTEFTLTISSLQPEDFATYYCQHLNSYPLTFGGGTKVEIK . Reported Kd?
13.4

Which Kd value is on record for ZY0EQD-E02 human IgG1-TM (antibody, V domains shown) VH: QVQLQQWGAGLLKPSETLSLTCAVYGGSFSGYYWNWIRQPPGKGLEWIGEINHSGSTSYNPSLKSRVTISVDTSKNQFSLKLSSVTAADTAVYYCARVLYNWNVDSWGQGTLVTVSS VL: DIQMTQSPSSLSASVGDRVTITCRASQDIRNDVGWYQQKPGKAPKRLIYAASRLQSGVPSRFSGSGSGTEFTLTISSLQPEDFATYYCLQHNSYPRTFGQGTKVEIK ?
14.4

Consider the binder ZY0EP0-C07 human IgG1-TM (antibody, V domains shown, also called ZY0EPO-C07) VH: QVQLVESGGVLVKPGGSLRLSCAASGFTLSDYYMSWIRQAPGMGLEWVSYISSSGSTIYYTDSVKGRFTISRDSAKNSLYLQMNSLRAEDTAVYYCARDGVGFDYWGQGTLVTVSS VL: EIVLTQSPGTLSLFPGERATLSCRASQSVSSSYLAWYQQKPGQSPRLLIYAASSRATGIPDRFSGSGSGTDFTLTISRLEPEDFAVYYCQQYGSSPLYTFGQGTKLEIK and give its measured Kd.
9.4

Could you share which Kd value was measured for ZY0EPQ-E02 human IgG1-TM (antibody, V domains shown) VH: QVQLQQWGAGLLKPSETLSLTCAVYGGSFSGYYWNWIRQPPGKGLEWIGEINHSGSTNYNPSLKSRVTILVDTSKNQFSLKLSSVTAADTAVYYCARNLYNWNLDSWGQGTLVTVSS VL: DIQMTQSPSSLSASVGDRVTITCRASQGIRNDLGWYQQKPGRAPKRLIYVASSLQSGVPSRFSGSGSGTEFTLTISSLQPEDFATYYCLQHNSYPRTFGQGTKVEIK ?
25.7
